Quick list: Emax per entry.
SUBJECT_OF_TEST: Human GLP-1 receptor (Homo sapiens, UniProt P43220)
Construct: expressed in transfected cells
Sequence (P43220 24-463): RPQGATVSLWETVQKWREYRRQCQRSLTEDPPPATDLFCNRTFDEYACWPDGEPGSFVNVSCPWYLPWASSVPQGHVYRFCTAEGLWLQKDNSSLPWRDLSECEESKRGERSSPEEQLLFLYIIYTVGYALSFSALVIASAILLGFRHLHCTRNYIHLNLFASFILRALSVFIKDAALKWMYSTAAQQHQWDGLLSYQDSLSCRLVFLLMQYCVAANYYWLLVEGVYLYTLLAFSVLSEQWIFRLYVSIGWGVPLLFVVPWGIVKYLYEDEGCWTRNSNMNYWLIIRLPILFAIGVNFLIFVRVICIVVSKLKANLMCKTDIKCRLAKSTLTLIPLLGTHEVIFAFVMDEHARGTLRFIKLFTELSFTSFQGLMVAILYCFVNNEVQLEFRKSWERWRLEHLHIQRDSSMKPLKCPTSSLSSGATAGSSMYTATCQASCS
ASSAY_DETAILS: Measurement of GLP-1 receptor agonist activity (cAMP assay)
Format: cell-based
CONDITION_SET: CHO-K1, hGLP-1R/CHO-K1 cells, cAMP; 100% = human GLP-1 (7-36) at 2 nM, 0% = DMSO only; read-out: Emax(%)
Quick reminder: number only, in %, skip the unit.

Here's what some known entries look like.
>>> df
                                   compound  unit_text  value_measured
0  C[C@H]1c2cc(OCc3c(F)cc(Cl)cc3F)c(C(F)(F)F)cc2CCN1Cc1nc2ccc(C(=O)O)nc2n1C[C@@H]1CCO1          %             124
1  COc1cc(C(=O)O)cc2c1nc(CN1CCc3cc(C(F)(F)F)c(OCc4ccc(Cl)cc4F)cc3[C@@H]1C)n2C[C@@H]1CCO1          %             122

Looking up C[C@H]1c2cc(OCc3ccc(F)cc3)c(C(F)(F)F)cc2CCN1Cc1nc2ccc(C(=O)O)c(F)c2n1C[C@@H]1CCO1 , I see its Emax listed as 97

# compound O=C(O)c1ccc2nc(CN3CCc4cc(C(F)(F)F)c(OCc5ccc(Cl)cc5F)cc4C3)n(C[C@@H]3CCCO3)c2c1 ; its Emax = 147

Measured Emax, C[C@H]1c2cc(OCc3ccc(C#N)cc3F)c(Cl)cc2CCN1Cc1nc2ccc(C(=O)O)cc2n1C[C@@H]1CCO1 : 125

So, Cc1ccc(COc2cc3c(cc2C(F)(F)F)CCN(Cc2nc4ccc(C(=O)O)c(F)c4n2C[C@@H]2CCO2)[C@H]3C)cc1 ? Its Emax was 111

# Emax of C[C@H]1c2cc(OCc3ccccc3Cl)c(C(F)(F)F)cc2CCN1Cc1nc2ccc(C(=O)O)cc2n1C[C@@H]1CCO1 = 103

Per the record, C[C@H]1c2cc(OCc3ccc(F)cc3F)c(C(F)(F)F)cc2CCN1Cc1nc2ccc(C(=O)O)nc2n1C[C@@H]1CCO1 has Emax of 98

Emax in this record for COCCn1c(CN2CCc3cc(C(F)(F)F)c(OCc4ccc(Cl)cc4F)cc3C2)nc2ccc(C(=O)O)cc21 : 93.7

Reported Emax for Cc1nc(COc2cc3c(cc2C(F)(F)F)CCN(Cc2nc4ccc(C(=O)O)cc4n2C[C@@H]2CCO2)C3)cs1 was 94.3

Lab note: measured Emax of COc1cc(Cl)ccc1COc1cc2c(cc1C(F)(F)F)CCN(Cc1nc3ccc(C(=O)O)nc3n1C[C@@H]1CCO1)[C@H]2C was 116

Query O=C(O)c1ccc2nc(CN3CCc4cc(C(F)(F)F)c(OCc5ccc(Cl)cc5F)cc4C3CF)n(C[C@@H]3CCO3)c2c1 (mixture of isomers) yields Emax of 112

Given item Cc1csc(COc2cc3c(cc2C(F)(F)F)CCN(Cc2nc4ccc(C(=O)O)nc4n2C[C@@H]2CCO2)[C@H]3C)n1 , the value recorded as its Emax is 107

* * *

Entries and their pEC50 values follow.
SUBJECT_OF_TEST: Human GLP-1 receptor (Homo sapiens, UniProt P43220)
Construct: expressed in transfected cells
ASSAY_DETAILS: Measurement of GLP-1 receptor agonist activity (cAMP assay)
Format: cell-based
CONDITION_SET: cAMP increase in GLP-1 R/CHO-K1 cells; 2 nM human GLP-1 (7-36) = 100%, DMSO only = 0%
Description: Test Example 1: (Measurement of GLP-1 Receptor Agonist Activity) Human GLP-1 receptor stably expressing cells (hGLP-1R/CHO-K1 cells) are cultured in an α-MEM medium (Sigma) containing 10% FBS (Hyclone), 2% GlutaMAX (Gibco), 1% G418 (Nacalai Tesque), and 1% Penicillin-Streptomycin Mixed Solution (Sigma) at 37° C. under 5% CO2 conditions, and recovered by treating a 10 fold diluted 5.0 g/l-trypsin/5.3 mmol/l-EDTA solution (Nacalai Tesque) and cryopreserved. […]
Friendly reminder that pEC50 comes from taking -log10 of the concentration in mol/L.

                               query_smiles  measure_name  value_measured
0  COc1cc(C(=O)O)cc2c1nc(CN1CCc3cc(C(F)(F)F)c(OCc4cc(F)c(Cl)cc4F)cc3[C@@H]1C)n2C[C@@H]1CCO1         pEC50            9.45

Quick note, pEC50 for C[C@H]1c2nc(OCc3ccc(C4CC4)cc3)c(C(F)(F)F)cc2CCN1Cc1nc2ccc(C(=O)O)nc2n1C[C@@H]1CCO1 landed at 8.90

Lab book: pEC50 of C[C@H]1c2nc(OCc3ccc(F)cc3)c(C(F)(F)F)cc2CCN1Cc1nc2ccc(C(=O)O)c(F)c2n1C[C@@H]1CCO1 noted as 10.06

Given item COc1cc(Cl)ccc1COc1nc2c(cc1C(F)(F)F)CCN(Cc1nc3c(F)cc(C(=O)O)cc3n1C[C@@H]1CCO1)[C@H]2C , the value recorded as its pEC50 is 10.67

Entry COc1cc(Cl)ccc1COc1cc2c(cc1Cl)CCN(Cc1nc3c(OC)cc(C(=O)O)cc3n1C[C@@H]1CCO1)[C@H]2C , pEC50 reported as 10.20

Documented pEC50 of C[C@H]1c2cc(OCc3ccc(C4CC4)cc3)c(Cl)cc2CCN1Cc1nc2c(F)cc(C(=O)O)cc2n1C[C@@H]1CCO1 : 8.09

Data provenance: patent US20240217966A1
